src = ChEMBL document CHEMBL4610091

Test system: Plasmodium falciparum
Assay: Antiplasmodial activity against Plasmodium falciparum K1 assessed as reduction in [3H]-hypoxanthine after 42 hrs by microculture radioisotope technique
Format: functional, organism-based
The entries below are paired with their reported IC50.
Value Kind: IC50 (µM)

1) O[C@@H](c1cc(C(F)(F)F)nc2c(C(F)(F)F)cccc12)[C@H]1CCCCN1	0.052
2) CO/C=C(/C(=O)OC)[C@H](C)[C@H](/C=C/c1cccc(OC)c1)OC	10.3
3) CO/C=C(/C(=O)OC)[C@H](C)[C@H](/C=C/c1ccc2c(c1)OC(C)(C)[C@@H](O)CO2)OC	22.3
4) CO/C=C(/C(=O)OC)C(C)C(=O)/C=C/c1ccc2c(c1)OC(C)(C)[C@@H](OCC=C(C)C)CO2 (stereo partly specified)	4.2

---

Test system: Vero
Assay: Cytotoxicity against African green monkey Vero cells by green fluorescent protein-based assay
Type: cell-based
Conditions: Chlorocebus sabaeus
Value Kind: IC50 (µM)

1. CO/C=C(/C(=O)OC)C(C)C(=O)/C=C/c1ccc2c(c1)OC(C)(C)[C@@H](OCC=C(C)C)CO2 (stereo not given in full)	68.2
2. COC(=O)/C(CO)=C(/C)[C@H](/C=C/c1ccc(Cl)c(OC)c1)OC	123
3. COC(=O)c1cc(-c2ccc3c(c2)O[C@@]2(CO3)O[C@H](C=C(C)C)OC2(C)C)cc(OC)c1C	13.6
4. CO/C=C(/C(=O)OC)C(C)C(=O)/C=C/c1ccc2c(c1)O[C@@]1(CO2)O[C@H](C=C(C)C)OC1(C)C (mixture of isomers)	18.4
5. CO/C=C(/C(=O)OC)[C@H](C)[C@H](/C=C/c1cccc(OC)c1)OC	112
6. COC(=O)/C(COC(=O)Cc1ccccc1)=C(/C)[C@H](/C=C/c1ccc(Cl)c(OC)c1)OC	55.4
7. C=CC(C)(C)O[C@H]1COc2cc(C(=O)OC)c(C)c(OC)c2OC1(C)C	43.4
8. Cc1c2ccncc2c(C)c2c1[nH]c1ccccc12	7.47
9. COC(=O)c1cc(-c2ccccc2)cc(OC)c1C	74
10. C=CC(C)(C)O[C@H]1COc2ccc(/C=C/[C@H](OC)[C@@H](C)/C(=C\OC)C(=O)OC)cc2OC1(C)C	24.5
11. C=CC(C)(C)O[C@H]1COc2ccc(/C=C/C(OC)=C(C)\C(=C/OC)C(=O)OC)cc2OC1(C)C	97.9

---

Test system: Plasmodium falciparum
Assay: Antiplasmodial activity against Plasmodium falciparum K1 assessed as reduction in [3H]-hypoxanthine after 42 hrs by microculture radioisotope technique
Format: functional, organism-based
The entries below are paired with their reported IC50.
Value Kind: IC50

1. CO/C=C(/C(=O)OC)[C@H](C)[C@H](/C=C/c1ccc2c(c1)OC(C)(C)[C@@H](OCC=C(C)C)CO2)OC	0.48 µM
2. COC(=O)/C(CO)=C(/C)[C@H](/C=C/c1ccc(Cl)c(OC)c1)OC	> 29 µM
3. C/C(=C\c1ccccc1)[C@@H](O)C(C)(C)O	> 48 µM
4. CO/C=C(/C(=O)OC)C(C)C(=O)/C=C/c1ccc2c(c1)O[C@@]1(CO2)O[C@H](C=C(C)C)OC1(C)C (mixture of isomers)	10.8 µM
5. COC(=O)/C(COC(=O)Cc1ccccc1)=C(/C)[C@H](/C=C/c1ccc(Cl)c(OC)c1)OC	> 22 µM
6. C[C@]1([C@@H]2Cc3cc(C(N)=O)cc(Cl)c3O2)CCC(=O)O1	> 34 µM
7. C=CC(C)(C)O[C@H]1COc2ccc(/C=C/C(OC)=C(C)\C(=C/OC)C(=O)OC)cc2OC1(C)C	0.089 µM
8. COC(=O)/C(CO)=C(/C)[C@H](/C=C/c1ccccc1)OC	> 36 µM
9. CO\C=C(C(=O)OC)/C(C)=C\C=C\c1ccc2c(c1)OC(C)(C)[C@@H](OCC=C(C)C)CO2	0.84 µM
10. CO/C=C(/C(=O)OC)C(C)C(=O)/C=C/c1ccccc1 (stereo not drawn)	> 36 µM
11. COC(=O)c1cc(-c2ccc3c(c2)O[C@@]2(CO3)O[C@H](C=C(C)C)OC2(C)C)cc(OC)c1C	> 22 µM
12. C=CC(C)(C)O[C@H]1COc2ccc(/C=C/[C@H](OC)[C@@H](C)/C(=C\OC)C(=O)OC)cc2OC1(C)C	0.24 µM
13. C[C@H]1[C@@H](O)O[C@@H]2O[C@@]3(C)CC[C@H]4[C@H](C)CC[C@@H]1[C@@]24OO3 [ARTENIMOL]	0.0031 µM
14. C/C(=C/[C@H](O)[C@H](O)c1ccccc1)CCO	> 45 µM
15. CO/C=C(/C(=O)OC)[C@H](C)[C@@H](O)/C=C/c1ccccc1	> 36 µM
16. C=CC(C)(C)O[C@H]1COc2cc(C(=O)OC)c(C)c(OC)c2OC1(C)C	8.4 µM
17. COC(=O)c1cc(-c2ccccc2)cc(OC)c1C	> 39 µM
18. CO\C=C(C(=O)OC)/C(C)=C(\C=C\c1ccc2c(c1)O[C@@]1(CO2)O[C@H](C=C(C)C)OC1(C)C)OC	0.14 µM
